Biological target: YesU (Bacillus subtilis)
Sequence (O31524 1-220): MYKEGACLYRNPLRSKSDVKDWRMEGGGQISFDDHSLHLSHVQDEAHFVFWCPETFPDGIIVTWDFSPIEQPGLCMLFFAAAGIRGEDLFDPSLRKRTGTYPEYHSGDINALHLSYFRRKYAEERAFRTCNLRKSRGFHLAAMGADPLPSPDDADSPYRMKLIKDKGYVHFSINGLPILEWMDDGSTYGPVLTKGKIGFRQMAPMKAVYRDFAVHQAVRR
METRIC NAME: Kd (nM)
Quick note: give the figure in nM, leave out the unit.

Examples with answers:
>>> experimental_value("CC(=O)N[C@H]1[C@H](O[C@H]2[C@@H](O)[C@@H](CO)O[C@@H](O[C@H]3[C@H](O)[C@@H](O)C(O)O[C@@H]3CO)[C@@H]2O)O[C@H](CO)[C@@H](O[C@@H]2O[C@H](CO)[C@H](O)[C@H](O)[C@H]2O[C@@H]2O[C@@H](C)[C@@H](O)[C@@H](O)[C@@H]2O)[C@@H]1O[C@@H]1O[C@@H](C)[C@@H](O)[C@@H](O)[C@@H]1O (stereo partly drawn)")
1140
>>> experimental_value("CC(=O)N[C@H]1[C@H](O[C@H]2[C@@H](O)[C@@H](CO)O[C@@H](O[C@H]3[C@H](O)[C@@H](O)C(O)O[C@@H]3CO)[C@@H]2O)O[C@H](CO)[C@@H](O[C@@H]2O[C@H](CO)[C@H](O)[C@H](O)[C@H]2O)[C@@H]1O[C@@H]1O[C@@H](C)[C@@H](O)[C@@H](O)[C@@H]1O (stereo partly drawn)")
140

Data request: Entry under review: CC(=O)N[C@H]1[C@H](O[C@H]2[C@@H](O)[C@@H](CO)O[C@@H](O[C@H]3[C@H](O)[C@@H](O)C(O)O[C@@H]3CO)[C@@H]2O)O[C@H](CO)[C@@H](O[C@@H]2O[C@H](CO)[C@H](O)[C@H](O)[C@H]2O)[C@@H]1O (stereo partly drawn) . Reported Kd?
Data returned: 440

---

Molecular target: YesU (Bacillus subtilis, UniProt O31524)
Construct: captured by His tag on NTA chip
Sequence (O31524 1-220): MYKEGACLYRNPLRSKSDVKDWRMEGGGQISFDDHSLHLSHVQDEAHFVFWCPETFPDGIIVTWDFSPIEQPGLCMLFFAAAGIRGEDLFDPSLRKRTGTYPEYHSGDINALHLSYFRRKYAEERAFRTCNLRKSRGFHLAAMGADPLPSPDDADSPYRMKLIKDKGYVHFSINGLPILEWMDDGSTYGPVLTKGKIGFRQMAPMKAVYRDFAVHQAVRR
Test: SPR, steady state, single cycle, Biacore T100
Type: binding
Settings: His-YesU on Ni-NTA chip; PBS-MgCl2 pH 7.4; 25 °C
METRIC NAME: Kd (nM)
Quick note: give the figure in nM, leave out the unit.

>>> experimental_value("CC(=O)N[C@H]1[C@H](O[C@H]2[C@H](O)[C@@H](NC(C)=O)[C@H](O[C@H]3[C@H](O)[C@@H](NC(C)=O)C(O)O[C@@H]3CO)O[C@@H]2CO)O[C@H](CO)[C@@H](O[C@@H]2O[C@H](CO)[C@@H](O[C@@H]3O[C@H](CO)[C@@H](O[C@@H]4O[C@H](CO)[C@@H](O)[C@H](O)[C@H]4NC(C)=O)[C@H](O)[C@H]3NC(C)=O)[C@H](O)[C@H]2NC(C)=O)[C@@H]1O (some centres unmarked)")
1130

Next up:
Data request: Entry under review: CC(=O)N[C@H]1[C@H](O[C@H]2[C@@H](O)[C@@H](CO)O[C@@H](O[C@H]3[C@H](O[C@@H]4O[C@@H](C)[C@@H](O)[C@@H](O)[C@@H]4O)[C@@H](O)C(O)O[C@@H]3CO)[C@@H]2O)O[C@H](CO)[C@@H](O[C@@H]2O[C@@H](C)[C@@H](O)[C@@H](O)[C@@H]2O)[C@@H]1O[C@@H]1O[C@H](CO)[C@H](O)[C@H](O)[C@H]1O (some centres unmarked) . Reported Kd?
Data returned: 340
